tested on: CCRF-CEM; experiment: NCI60 one-dose screen (10 μM), Leukemia; type: cell-based; settings: Homo sapiens, 10 μM, Leukemia, read-out: Growth percent rate
Give activity at 10 µM for every item shown.
# unit: % | format: bare number

stdin: Please look up its activity at 10 µM: CCC12C=CCN3CCC4(c5ccc(OC)cc5N(C)C4C(O)(C(=O)OC)C1OC(=O)CCC(=O)O)C32 (stereo not drawn)
stdout: 105

stdin: Please look up its activity at 10 µM: "CC[C@]12C=CCN3CC[C@@]4(c5ccc(OC)cc5N(C)[C@H]4[C@@](O)(C(=O)OC)[C@@H]1OC(=O)CCC(=O)N1CCN(Cc4ccc(F)cc4)CC1)[C@@H]32"
stdout: 61.4

stdin: Please look up its activity at 10 µM: "CC[C@]12C=CCN3CC[C@@]4(c5ccc(OC)cc5N(C)[C@H]4[C@@](O)(C(=O)OC)[C@@H]1OC(=O)CCCN1CCN(Cc4ccc(F)cc4)CC1)[C@@H]32"
stdout: 12.7
